Could you please report measured MIC for the items listed next?
Tested on: Enterococcus faecium
Assay: In vitro Minimum inhibitory concentration against Streptococcus faecium ATCC 8043-2
Type: functional
Answers are plain numbers, in µg/mL.

Known results for molecules:
| molecule | readingUnit | MIC |
| --- | --- | --- |
| CC1(C)SC2C(NC(=O)N/C=C/c3ccc4c(c3)OCO4)C(=O)N2[C@H]1C(=O)[O-].[Na+] (some centres undefined) | µg/mL | 200 |
| CC1(C)SC2C(NC(=O)NCc3ccc4ccccc4c3)C(=O)N2[C@H]1C(=O)[O-].[Na+] (some centres undefined) | µg/mL | 3.12 |
| CC1(C)SC2C(NC(=O)NCCc3ccc4ccccc4c3)C(=O)N2[C@H]1C(=O)[O-].[Na+] (some centres undefined) | µg/mL | 6.25 |
| CC1(C)SC2C(NC(=O)N/C=C/c3ccc4ccccc4c3)C(=O)N2[C@H]1C(=O)[O-].[Na+] (some centres undefined) | µg/mL | 200 |
| CC1(C)SC2C(NC(=O)NCCc3ccccc3)C(=O)N2[C@H]1C(=O)[O-].[Na+] (some centres undefined) | µg/mL | 3.12 |
| CC1(C)SC2C(NC(=O)N/C=C/C3CCCCC3)C(=O)N2[C@H]1C(=O)[O-].[Na+] (some centres undefined) | µg/mL | 50 |

Could you now consider this next molecule?
Exercise: Which measured MIC value corresponds to `CC1(C)S[C@@H]2[C@H](NC(=O)Cc3ccccc3)C(=O)N2[C@H]1C(=O)O` ?
Key: 0.4

* * *

Test: Percent inhibition of lactic acid production by the compound at 5 p.p.m.
Assay type: functional
Parameters: scale not given: the % may be the effect or the level left
measurementType: Control

Known results for compounds:
| compound | Control |
| --- | --- |
| CC1(C)SC2C(NC(=O)NC3CC3c3ccccc3)C(=O)N2[C@H]1C(=O)[O-].[Na+] (some centres undefined) | 4% |
| CC1(C)SC2C(NC(=O)Nc3ccc(Cl)cc3)C(=O)N2[C@H]1C(=O)[O-].[Na+] (some centres undefined) | 112% |
| CC1(C)SC2C(NC(=O)NCCc3ccccc3)C(=O)N2[C@H]1C(=O)[O-].[Na+] (some centres undefined) | 6% |
| CC1(C)SC2C(NC(=O)Nc3ccccc3)C(=O)N2[C@H]1C(=O)[O-].[Na+] (some centres undefined) | 110% |
| CC1(C)SC2C(NC(=O)NCc3ccc4ccccc4c3)C(=O)N2[C@H]1C(=O)[O-].[Na+] (some centres undefined) | 4% |

For the 7 compounds below, give their Control values.
1. CC1(C)SC2C(NC(=O)N/C=C/C3CCCCC3)C(=O)N2[C@H]1C(=O)[O-].[Na+] (some centres undefined)
2. CC1(C)SC2C(NC(=O)N/C=C/c3cccc4ccccc34)C(=O)N2[C@H]1C(=O)[O-].[Na+] (some centres undefined)
3. C/C(=C\NC(=O)NC1C(=O)N2C1SC(C)(C)[C@@H]2C(=O)[O-])c1ccccc1.[Na+] (some centres undefined)
4. CC1(C)SC2C(NC(=O)N/C=C/c3ccc4c(c3)OCO4)C(=O)N2[C@H]1C(=O)[O-].[Na+] (some centres undefined)
5. CC1(C)SC2C(NC(=O)N/C=C/c3cccc(Br)c3)C(=O)N2[C@H]1C(=O)[O-].[Na+] (some centres undefined)
6. CC1(C)SC2C(NC(=O)NCCc3ccc4ccccc4c3)C(=O)N2[C@H]1C(=O)[O-].[Na+] (some centres undefined)
7. CCOC(=O)c1ccc(NC(=O)NC2C(=O)N3C2SC(C)(C)[C@@H]3C(=O)O)cc1 (some centres undefined)

Key:
2%
0%
5%
0%
0%
7%
95%

For the 2 compounds below, give their Control values.
1. CCOc1ccc(/C=C/NC(=O)NC2C(=O)N3C2SC(C)(C)[C@@H]3C(=O)[O-])cc1.[Na+] (some centres undefined)
2. CC1(C)SC2C(NC(=O)N/C=C/c3ccc(Cl)cc3)C(=O)N2[C@H]1C(=O)[O-].[Na+] (some centres undefined)

Key:
1. 1%
2. 2%

* * *

Assay: Lipophilicity estimated on reversed phase TLC
Assay type: physicochemical
Conditions: silicone oil-coated silica gel plates, 30% MeOH in pH 7.0 buffer
measurementType: Delta RM
Answers are plain numbers.

Known results for molecules:
| molecule | assayValue |
| --- | --- |
| CC1(C)SC2C(NC(=O)Nc3ccccc3)C(=O)N2[C@H]1C(=O)[O-].[Na+] (some centres undefined) | -0.75 |
| CC1(C)SC2C(NC(=O)N/C=C/C3CCCCC3)C(=O)N2[C@H]1C(=O)[O-].[Na+] (some centres undefined) | 0.77 |
| CC(C)NC(=O)NC1C(=O)N2C1SC(C)(C)[C@@H]2C(=O)[O-].[Na+] (some centres undefined) | -2 |
| CC1(C)SC2C(NC(=O)N/C=C/c3cccs3)C(=O)N2[C@H]1C(=O)[O-].[Na+] (some centres undefined) | -0.2 |

For the 4 molecules below, give their Delta RM values.
1. CC1(C)SC2C(NC(=O)N/C=C/c3ccc4c(c3)OCO4)C(=O)N2[C@H]1C(=O)[O-].[Na+] (some centres undefined)
2. CC1(C)SC2C(NC(=O)N/C=C/c3cccc(Br)c3)C(=O)N2[C@H]1C(=O)[O-].[Na+] (some centres undefined)
3. CC1(C)SC2C(NC(=O)N/C=C/c3ccc(Cl)cc3)C(=O)N2[C@H]1C(=O)[O-].[Na+] (some centres undefined)
4. COc1cc(/C=C/NC(=O)NC2C(=O)N3C2SC(C)(C)[C@@H]3C(=O)[O-])cc(OC)c1OC.[Na+] (some centres undefined)

Key:
[-0.06, 0.69, 0.58, -0.45]

Exercise: Which measured Delta RM value corresponds to CC1(C)SC2C(NC(=O)N/C=C/c3ccco3)C(=O)N2[C@H]1C(=O)[O-].[Na+] (some centres undefined) ?
Key: -0.26

* * *

Assay: Lipophilicity estimated on reversed phase TLC
Assay type: physicochemical
Details: silicone oil-coated silica gel plates, 30% MeOH in pH 7.0 buffer
Could you please report measured Delta RM for the items listed next?
Give bare numbers.

| compound | Delta RM |
| --- | --- |
| Cc1ccc(/C=C/NC(=O)NC2C(=O)N3C2SC(C)(C)[C@@H]3C(=O)[O-])cc1.[Na+] (stereo partly specified) | 0.5 |
| CC1(C)SC2C(NC(=O)N/C=C/c3ccc(Cl)c(Cl)c3)C(=O)N2[C@H]1C(=O)[O-].[Na+] (stereo partly specified) | 1.44 |
| CC1(C)SC2C(NC(=O)NCCc3ccccc3)C(=O)N2[C@H]1C(=O)[O-].[Na+] (stereo partly specified) | -0.6 |
| CCOc1ccc(/C=C/NC(=O)NC2C(=O)N3C2SC(C)(C)[C@@H]3C(=O)[O-])cc1.[Na+] (stereo partly specified) | 0.43 |
| C/C(=C\NC(=O)NC1C(=O)N2C1SC(C)(C)[C@@H]2C(=O)[O-])c1ccccc1.[Na+] (stereo partly specified) | 0.3 |

Exercise: Which measured Delta RM value corresponds to CC1(C)SC2C(NC(=O)NCc3ccc4ccccc4c3)C(=O)N2[C@H]1C(=O)[O-].[Na+] (stereo partly specified) ?
Key: 0

* * *

Assay: Lipophilicity estimated on reversed phase TLC
Type: physicochemical
Conditions: silicone oil-coated silica gel plates, 30% MeOH in pH 7.0 buffer
measurementType: Delta RM
One number for each entry.

| compound | assayValue |
| --- | --- |
| CC1(C)SC2C(NC(=O)NCCc3ccc4ccccc4c3)C(=O)N2[C@H]1C(=O)[O-].[Na+] (stereo partly drawn) | 0.89 |

For the 2 compounds below, give their Delta RM values.
1. CC1(C)SC2C(NC(=O)Nc3ccc(Cl)cc3)C(=O)N2[C@H]1C(=O)[O-].[Na+] (stereo partly drawn)
2. CC1(C)SC2C(NC(=O)N/C=C/c3cccc4ccccc34)C(=O)N2[C@H]1C(=O)[O-].[Na+] (stereo partly drawn)

Key:
1: -0.01; 2: 0.66

Reference for the values: ChEMBL document CHEMBL1121733
